Each recorded value in this set is attributed to paper PMC7321218.

Biological target: human serum albumin (HSA) (Homo sapiens)
Construct: three analogous domains (I, II, and III) having amino acid residues of 1–195, 196–383, and 384–585
Test: Zeta potential of HSA (surface perturbation)
Type: binding
Conditions: ZP measurement, HSA with compound
Procedure: All zeta potential (ZP) measurements were performed with 10 runs at 298 K and results were reported in terms of ZP ± SD. The ZP was measured for the HSA solution (1.0 × 10^−5 M in PBS solution) without and in the presence of the mesoionic compounds at the maximum concentration used in the steady-state fluorescence experiments (1.32 × 10^−5 M) at room temperature (ca. 298 K).
measured-metric: Conductance

In plain terms, Cc1ccc(Nc2n[n+](-c3ccccc3)c(/C=C/c3ccccc3)s2)cc1.[Cl-] [5a] has a documented Conductance of 29,615 µs

In plain terms, COc1ccc(Nc2n[n+](-c3ccccc3)c(/C=C/c3ccccc3)s2)cc1.[Cl-] [5b] has a documented Conductance of 29,642 µs

In plain terms, Brc1ccc(Nc2n[n+](-c3ccccc3)c(/C=C/c3ccccc3)s2)cc1.[Cl-] [5d] has a documented Conductance of 29,638 µs

In plain terms, Clc1ccc(Nc2n[n+](-c3ccccc3)c(/C=C/c3ccccc3)s2)cc1.[Cl-] [5c] has a documented Conductance of 29,622 µs

---

Readings of pIC50 for the listed molecules
Tested on: C91/PL cells (HTLV-1-infected)
Assay: MTT cell viability assay, C91/PL cells
Type: cell-based
Conditions: 72 h incubation
Protocol: The 1 × 10^5 cells/mL were incubated with or without compounds 5a, 5b, 5c, 5d or DMSO (Sigma-Aldrich/Merck, St. Louis, MO, USA) at 37 °C in humidified atmosphere with a 5% CO2. After 72 h, the cellular viability was assessed using 5 mg/mL of 3-(4,5-dimethylthiazol-2-yl)-2,5-diphenyltetrazolium bromide (MTT, Sigma-Aldrich/Merck). […] Plates were read on a Paradigma® spectrofluorometer (Molecular Devices, San Jose, CA, USA) at a 490 nm wavelength. […]
As a rule, pIC50 stands for the negative log10 of the concentration, concentration in M.

Consider the reported pIC50 for these molecules:
Record for Clc1ccc(Nc2n[n+](-c3ccccc3)c(/C=C/c3ccccc3)s2)cc1.[Cl-] under target or system C91/PL cells (HTLV-1-infected): pIC50 reported as 5.35

Record for COc1ccc(Nc2n[n+](-c3ccccc3)c(/C=C/c3ccccc3)s2)cc1.[Cl-] under target or system C91/PL cells (HTLV-1-infected): pIC50 reported as 5.35

Record for Cc1ccc(Nc2n[n+](-c3ccccc3)c(/C=C/c3ccccc3)s2)cc1.[Cl-] under target or system C91/PL cells (HTLV-1-infected): pIC50 reported as 5.55

Moving on to another molecule below.
Record for Brc1ccc(Nc2n[n+](-c3ccccc3)c(/C=C/c3ccccc3)s2)cc1.[Cl-] under target or system C91/PL cells (HTLV-1-infected): pIC50 reported as 5.28

---

Target: human serum albumin (HSA) (Homo sapiens, UniProt P02768)
Construct: three analogous domains (I, II, and III) having amino acid residues of 1–195, 196–383, and 384–585
Sequence (P02768 25-609): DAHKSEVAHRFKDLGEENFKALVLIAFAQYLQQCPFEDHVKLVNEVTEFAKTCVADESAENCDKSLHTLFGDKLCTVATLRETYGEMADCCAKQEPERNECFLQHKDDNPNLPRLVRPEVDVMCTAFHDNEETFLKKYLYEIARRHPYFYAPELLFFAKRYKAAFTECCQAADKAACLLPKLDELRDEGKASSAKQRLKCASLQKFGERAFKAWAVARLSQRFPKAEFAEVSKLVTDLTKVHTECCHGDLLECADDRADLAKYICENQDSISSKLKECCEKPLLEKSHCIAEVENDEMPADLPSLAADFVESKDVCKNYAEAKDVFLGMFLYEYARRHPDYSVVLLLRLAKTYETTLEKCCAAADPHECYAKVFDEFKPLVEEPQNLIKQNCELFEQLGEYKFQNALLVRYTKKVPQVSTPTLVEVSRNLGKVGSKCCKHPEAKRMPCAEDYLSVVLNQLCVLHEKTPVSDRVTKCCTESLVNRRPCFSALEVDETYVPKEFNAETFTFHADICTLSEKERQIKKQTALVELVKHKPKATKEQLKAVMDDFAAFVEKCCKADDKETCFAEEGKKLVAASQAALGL
Assay: Time-resolved fluorescence decay of HSA
Assay type: binding
Details: HSA 1.00 × 10^−5 M with 1.32 × 10^−5 M compound, ca 298 K
measured-metric: τ1 (HSA fluorescence lifetime) (ns)
Report the figure in ns without appending any unit label.

Consider the reported τ1 (HSA fluorescence lifetime) for these compounds:
In plain terms, Cc1ccc(Nc2n[n+](-c3ccccc3)c(/C=C/c3ccccc3)s2)cc1.[Cl-] has a documented τ1 (HSA fluorescence lifetime) of 1.61

In plain terms, Brc1ccc(Nc2n[n+](-c3ccccc3)c(/C=C/c3ccccc3)s2)cc1.[Cl-] has a documented τ1 (HSA fluorescence lifetime) of 1.65

In plain terms, COc1ccc(Nc2n[n+](-c3ccccc3)c(/C=C/c3ccccc3)s2)cc1.[Cl-] has a documented τ1 (HSA fluorescence lifetime) of 1.66

Moving on to another compound below.
In plain terms, Clc1ccc(Nc2n[n+](-c3ccccc3)c(/C=C/c3ccccc3)s2)cc1.[Cl-] has a documented τ1 (HSA fluorescence lifetime) of 1.68

---

Biological target: human serum albumin (HSA) (Homo sapiens)
Construct: three analogous domains (I, II, and III) having amino acid residues of 1–195, 196–383, and 384–585
Assay: Time-resolved fluorescence decay of HSA
Type: binding
Details: HSA 1.00 × 10^−5 M with 1.32 × 10^−5 M compound, ca 298 K
measured-metric: Relative % of τ1 (%)
Report the figure in % without appending any unit label.

Consider the reported Relative % of τ1 for these molecules:
In plain terms, Clc1ccc(Nc2n[n+](-c3ccccc3)c(/C=C/c3ccccc3)s2)cc1.[Cl-] [5c] has a documented Relative % of τ1 of 33.0

In plain terms, COc1ccc(Nc2n[n+](-c3ccccc3)c(/C=C/c3ccccc3)s2)cc1.[Cl-] [5b] has a documented Relative % of τ1 of 23.9

In plain terms, Brc1ccc(Nc2n[n+](-c3ccccc3)c(/C=C/c3ccccc3)s2)cc1.[Cl-] [5d] has a documented Relative % of τ1 of 29.8

Moving on to another molecule below.
In plain terms, Cc1ccc(Nc2n[n+](-c3ccccc3)c(/C=C/c3ccccc3)s2)cc1.[Cl-] [5a] has a documented Relative % of τ1 of 26.4

---

Target: human serum albumin (HSA) (Homo sapiens)
Construct: three analogous domains (I, II, and III) having amino acid residues of 1–195, 196–383, and 384–585
Experiment: Steady-state fluorescence quenching of HSA
Format: binding
Settings: 303 K
Readings of kq (bimolecular quenching rate constant) for the listed molecules
Report the figure in M⁻¹ s⁻¹ without appending any unit label.

Consider the reported kq (bimolecular quenching rate constant) for these molecules:
In plain terms, Cc1ccc(Nc2n[n+](-c3ccccc3)c(/C=C/c3ccccc3)s2)cc1.[Cl-] [5a] has a documented kq (bimolecular quenching rate constant) of 2.16e+13

In plain terms, Brc1ccc(Nc2n[n+](-c3ccccc3)c(/C=C/c3ccccc3)s2)cc1.[Cl-] [5d] has a documented kq (bimolecular quenching rate constant) of 2.79e+13

In plain terms, Clc1ccc(Nc2n[n+](-c3ccccc3)c(/C=C/c3ccccc3)s2)cc1.[Cl-] [5c] has a documented kq (bimolecular quenching rate constant) of 2.45e+13

Moving on to another molecule below.
In plain terms, COc1ccc(Nc2n[n+](-c3ccccc3)c(/C=C/c3ccccc3)s2)cc1.[Cl-] [5b] has a documented kq (bimolecular quenching rate constant) of 2.06e+13

---

Readings of ΔS° for the listed compounds
Biological target: human serum albumin (HSA) (Homo sapiens, UniProt P02768)
Construct: three analogous domains (I, II, and III) having amino acid residues of 1–195, 196–383, and 384–585
Test: Steady-state fluorescence quenching of HSA
Format: binding
Conditions: van't Hoff, 296–310 K
Description: The steady-state fluorescence spectra were measured in the 290–450 nm range, at 296, 303, and 310 K, with the excitation wavelength at λ = 295 nm. To a 3.0 mL solution containing an appropriate concentration of HSA (1.00 × 10^−5 M), successive aliquots from a stock solution of each mesoionic under study (1.00 × 10^−3 M in DMSO) were added, with final concentrations of 0.17, 0.33, 0.50, 0.66, 0.83, 0.99, 1.15, and 1.32 × 10^−5 M. The addition was done manually by using a micro syringe. […]

Record for Clc1ccc(Nc2n[n+](-c3ccccc3)c(/C=C/c3ccccc3)s2)cc1.[Cl-] under target or system human serum albumin (HSA) (Homo sapiens, UniProt P02768): ΔS° reported as 11.6 ± 0.1 × 10^−2 kJ.mol^−1K^−1

Record for COc1ccc(Nc2n[n+](-c3ccccc3)c(/C=C/c3ccccc3)s2)cc1.[Cl-] under target or system human serum albumin (HSA) (Homo sapiens, UniProt P02768): ΔS° reported as 8.81 ± 0.06 × 10^−2 kJ.mol^−1K^−1

Record for Brc1ccc(Nc2n[n+](-c3ccccc3)c(/C=C/c3ccccc3)s2)cc1.[Cl-] under target or system human serum albumin (HSA) (Homo sapiens, UniProt P02768): ΔS° reported as 10.6 ± 0.1 × 10^−2 kJ.mol^−1K^−1

Moving on to another compound below.
Record for Cc1ccc(Nc2n[n+](-c3ccccc3)c(/C=C/c3ccccc3)s2)cc1.[Cl-] under target or system human serum albumin (HSA) (Homo sapiens, UniProt P02768): ΔS° reported as 8.46 ± 0.05 × 10^−2 kJ.mol^−1K^−1

---

Biological target: human serum albumin (HSA) (Homo sapiens, UniProt P02768)
Construct: three analogous domains (I, II, and III) having amino acid residues of 1–195, 196–383, and 384–585
Test: Steady-state fluorescence quenching of HSA
Assay type: binding
Settings: 303 K
Experimental: The steady-state fluorescence spectra were measured in the 290–450 nm range, at 296, 303, and 310 K, with the excitation wavelength at λ = 295 nm. To a 3.0 mL solution containing an appropriate concentration of HSA (1.00 × 10^−5 M), successive aliquots from a stock solution of each mesoionic under study (1.00 × 10^−3 M in DMSO) were added, with final concentrations of 0.17, 0.33, 0.50, 0.66, 0.83, 0.99, 1.15, and 1.32 × 10^−5 M. The addition was done manually by using a micro syringe. […]
measured-metric: KSV (Stern–Volmer quenching constant)

Consider the reported KSV (Stern–Volmer quenching constant) for these compounds:
In plain terms, Clc1ccc(Nc2n[n+](-c3ccccc3)c(/C=C/c3ccccc3)s2)cc1.[Cl-] has a documented KSV (Stern–Volmer quenching constant) of 1.36 ± 0.04 × 10^5 M^−1

In plain terms, Brc1ccc(Nc2n[n+](-c3ccccc3)c(/C=C/c3ccccc3)s2)cc1.[Cl-] has a documented KSV (Stern–Volmer quenching constant) of 1.54 ± 0.03 × 10^5 M^−1

In plain terms, COc1ccc(Nc2n[n+](-c3ccccc3)c(/C=C/c3ccccc3)s2)cc1.[Cl-] has a documented KSV (Stern–Volmer quenching constant) of 1.14 ± 0.03 × 10^5 M^−1

More entries:
In plain terms, Cc1ccc(Nc2n[n+](-c3ccccc3)c(/C=C/c3ccccc3)s2)cc1.[Cl-] has a documented KSV (Stern–Volmer quenching constant) of 1.20 ± 0.03 × 10^5 M^−1
